Each recorded value in this set is attributed to ChEMBL document CHEMBL3580603.

Assay notes: Cytotoxicity against mouse BV2 cells assessed as reduction of cell viability at IC50 after 24 hrs by MTT assay
Assay type: cell-based
Settings: bv-2, 24 h
Endpoint: Activity

Would you please look over these solved cases?
{"columns": ["Smiles str", "Activity"],
 "data": [
  ["COc1c(-c2ccccc2)oc2c(ccc3occc32)c1=O", "Non-toxic"],
  ["CN1CC[C@@H](O)C[C@H]1C(=O)O", "Non-toxic"],
  ["COc1ccc(-c2coc3c(O)c(O)ccc3c2=O)cc1O", "Non-toxic"],
  ["COc1c(-c2ccc3c(c2)OCO3)oc2c3c(ccc2c1=O)OC(C)(C)C=C3", "Non-toxic"],
  ["COc1c(-c2ccc3c(c2)OCO3)oc2c(ccc3occc32)c1=O", "Non-toxic"]
]}

Consider the molecule COc1ccc(-c2coc3cc(OCC=C(C)C)ccc3c2=O)cc1 and give its recorded Activity.
Non-toxic

---

Tested on: BV-2
Assay notes: Anti-neuroinflammatory activity against mouse BV2 cells assessed as inhibition of LPS-induced nitric oxide production after 24 hrs by Griess assay
Type: functional, cell-based
Settings: BV-2, 24 h
Endpoint: pIC50
Lab note — pIC50 values are minus log10 of concentrations in M.

{"columns": ["Molecule", "pIC50"],
 "data": [
  ["COc1ccc(-c2coc3c(O)c(OC)ccc3c2=O)cc1 [RETUSIN 7-METHYL ETHER]", 4.29]
]}

# return recorded pIC50 for input O=c1cc(-c2ccccc2)oc2c1ccc1occc12 [LANCEOLATIN B]
4.69

Query pIC50 for COc1cc2occc2c2oc(-c3ccccc3)cc(=O)c12
5.22

---

Tested on: BV-2
Assay notes: Anti-neuroinflammatory activity against mouse BV2 cells assessed as inhibition of LPS-induced nitric oxide production after 24 hrs by Griess assay
Format: functional, cell-based
Settings: BV-2, 24 h
Endpoint: IC50

{"columns": ["Compound", "Tested target", "IC50"],
 "data": [
  ["COc1cccc(-c2cc(=O)c3ccc4occc4c3o2)c1", "BV-2", "> 100 µM"],
  ["COc1c2ccoc2cc2oc(-c3ccccc3)cc(=O)c12 [PINNATIN]", "BV-2", "> 100 µM"]
]}

Find the measured IC50 of COc1c2ccoc2cc2oc(-c3ccc4c(c3)OCO4)cc(=O)c12 and report it.
> 100 µM
